Kindly state Activity for each of the entries shown.
Test system: Podosphaera fuliginea
Experiment: Preventive fungicidal activity against Podosphaera fuliginea infected cucumber leaves at 31.3 ppm after by foliar application method
Type: functional
The reply should be a number in %, with the unit left off.

Summary line: COC(c1cc(C)no1)c1ccccc1/C=N/N=C(\C)c1ccc(OC(F)(F)F)cc1 (configuration not stated) , Podosphaera fuliginea, reported Activity = 100

Summary line: COC(c1cc(C)no1)c1ccccc1/C=N/N=C(\C)c1ccc(C)cc1 (configuration not stated) , Podosphaera fuliginea, reported Activity = 90

Summary line: COC(c1cc(C)no1)c1ccccc1/C=N/N=C(\C)c1ccc(Br)cc1 (configuration not stated) , Podosphaera fuliginea, reported Activity = 100

Summary line: "CNC(=O)/C(=N/OC)c1ccccc1Oc1ccccc1" , Podosphaera fuliginea, reported Activity = 100

Summary line: COC(c1cc(C)no1)c1ccccc1COc1ncc(C(F)(F)F)cc1Cl (configuration not stated) , Podosphaera fuliginea, reported Activity = 90

Summary line: COC(c1cc(C)no1)c1ccccc1/C=N/N=C(\C)c1ccc(Cl)c(Cl)c1 (configuration not stated) , Podosphaera fuliginea, reported Activity = 100

Summary line: COC(c1cc(C)no1)c1ccccc1/C=N/N=C(\C)c1ccc(Cl)cc1Cl (configuration not stated) , Podosphaera fuliginea, reported Activity = 90

Summary line: COC(c1cc(C)no1)c1ccccc1CO/N=C(\C)c1ccc(Cl)cc1 (configuration not stated) , Podosphaera fuliginea, reported Activity = 90

Summary line: COC(c1cc(C)no1)c1ccccc1COc1ccccc1C (configuration not stated) , Podosphaera fuliginea, reported Activity = 90

Summary line: COC(c1ccon1)c1ccccc1COc1cc(C)ccc1C (configuration not stated) , Podosphaera fuliginea, reported Activity = 90

Summary line: COC(c1cc(C)on1)c1ccccc1COc1cc(C)ccc1C (configuration not stated) , Podosphaera fuliginea, reported Activity = 90

Summary line: "CO/N=C(\c1ccon1)c1ccccc1COc1cc(C)ccc1C" , Podosphaera fuliginea, reported Activity = 100

###

Kindly state Activity for each of the entries shown.
Test system: Podosphaera fuliginea
Assay: Curative fungicidal activity against Podosphaera fuliginea infected cucumber leaves at 31.3 ppm after by foliar application method
Assay type: functional
The reply should be a number in %, with the unit left off.

Noted for COC(c1cc(C)no1)c1ccccc1/C=N/N=C(\C)c1ccc(OC(F)(F)F)cc1 (stereo not given) : its Activity reads 45

Noted for COC(c1cc(C)no1)c1ccccc1/C=N/N=C(\C)c1ccc(Cl)c(Cl)c1 (stereo not given) : its Activity reads 70

Noted for "CO/N=C(\c1ccon1)c1ccccc1COc1cc(C)ccc1C" : its Activity reads 0

Noted for COC(c1cc(C)no1)c1ccccc1/C=N/N=C(\C)c1ccc(Br)cc1 (stereo not given) : its Activity reads 70

Noted for "CNC(=O)/C(=N/OC)c1ccccc1Oc1ccccc1" : its Activity reads 40

###

Tested on: Myzus persicae
Test: Insecticidal activity against Myzus persicae (green peach aphid) nymphs fed with chinese cabbage leaf assessed as mortality at 15.6 ppm applied through spraying measured after 48 hr
Assay type: functional
Kindly state mortality at 15.6 ppm for each of the entries shown.
The reply should be a number in %, with the unit left off.

Noted for CC(C)C(C(=O)OC(C#N)c1cccc(Oc2ccccc2)c1)c1ccc(OC(F)F)cc1 (centres undefined) [FLUCYTHRINATE] : its mortality at 15.6 ppm reads 3

Noted for COC(c1cc(C)no1)c1ccccc1/C=N/N=C(\C)c1ccc(C(F)(F)F)cc1 (centres undefined) : its mortality at 15.6 ppm reads 0

Noted for COC(c1cc(C)no1)c1ccccc1/C=N/N=C(\C)c1ccc(Cl)c(Cl)c1 (centres undefined) : its mortality at 15.6 ppm reads 0

Noted for COC(c1cc(C)no1)c1ccccc1/C=N/N=C(\C)c1ccc(Cl)cc1 (centres undefined) : its mortality at 15.6 ppm reads 0
